Test: protein stability index of a GFP-peptide fusion (yeast GPS) (PSI 1-4); higher = more stable; sorted into four equal gates, so the index is relative within each strain
Conditions: pdr5∆
Hi there, I'd appreciate the recorded protein stability index for every entry that follows.
Number only, please.

Ask: Input VPEFFQTANEKHITVRL [SRP14] , output reported protein stability index.
Reply: 2.67

Ask: Input IMAKRPFDKKSNSALFR [FAS1] , output reported protein stability index.
Reply: 2.9

Ask: Input MSVPAIAPRRKRLADGL [DIS3] , output reported protein stability index.
Reply: 3.18

Ask: Input TNFEILNEMLNTRKNMS [DIS3] , output reported protein stability index.
Reply: 3.07

Ask: Input PANHLQSDFCLSWCPSR [YGL100W/SEH1] , output reported protein stability index.
Reply: 2.05

Ask: Input LIVDTHVQFRLGNVDAF [PRP8] , output reported protein stability index.
Reply: 2

Ask: Input TATTGKRKPAKSSSNRS [RPN4] , output reported protein stability index.
Reply: 2.96

====

Test: protein stability index of a GFP-peptide fusion (yeast GPS) (PSI 1-4); higher = more stable; sorted into four equal gates, so the index is relative within each strain
Details: pdr5∆
# label = Yes if protein stability index >= 2 else No

Ask: Hi team, for VHTANFSERGSNTRTMT [MED2] , is the recorded protein stability index at or above 2?
Reply: Yes

Ask: Hi team, for DDDKKPDDDKIVPLTEG [RPT1] , is the recorded protein stability index at or above 2?
Reply: Yes

Ask: Hi team, for VMGTPLTNMMSPMGNAY [PGD1] , is the recorded protein stability index at or above 2?
Reply: Yes

Ask: Hi team, for LTSTKVKQLENVSSNIV [RPS20] , is the recorded protein stability index at or above 2?
Reply: Yes

Ask: Hi team, for QLDSKLMVFNDDTKNQD [YGR119C/NUP57] , is the recorded protein stability index at or above 2?
Reply: Yes

Ask: Hi team, for RQLQYETLGDILKRDFE [ECM29] , is the recorded protein stability index at or above 2?
Reply: Yes

Ask: Hi team, for YQLNGVAPFMIKYEFNG [YMR129W/POM152] , is the recorded protein stability index at or above 2?
Reply: Yes

Ask: Hi team, for DQAMEKKPSPQTIPIQI [YGR119C/NUP57] , is the recorded protein stability index at or above 2?
Reply: Yes

Ask: Hi team, for LGIKVAELTGDSRLSRK [BRR2] , is the recorded protein stability index at or above 2?
Reply: Yes

Ask: Hi team, for VTYSDVGGCKDQIEKLR [RPT1] , is the recorded protein stability index at or above 2?
Reply: Yes

Ask: Hi team, for SVRGAIVGPDLAVLALV [RPS6A] , is the recorded protein stability index at or above 2?
Reply: No

Ask: Hi team, for SAIEHTTLKSVTIASEI [RPO21] , is the recorded protein stability index at or above 2?
Reply: Yes

Ask: Hi team, for SADDDVNNGNIPSQRGT [SIR3] , is the recorded protein stability index at or above 2?
Reply: Yes

Ask: Hi team, for ISSLFTITTILILGLNT [YML103C/NUP188] , is the recorded protein stability index at or above 2?
Reply: No

Ask: Hi team, for NAGTDIVMEDHGVLQGT [MED1] , is the recorded protein stability index at or above 2?
Reply: Yes

Ask: Hi team, for TQLSYLISSSLSNLSKD [YCS4] , is the recorded protein stability index at or above 2?
Reply: No

Ask: Hi team, for LLRNLESKMRQQEAKYR [YDL088C/ASM4] , is the recorded protein stability index at or above 2?
Reply: No

Ask: Hi team, for DPLVSLMMVEKVPDSTY [RPT6] , is the recorded protein stability index at or above 2?
Reply: Yes

Ask: Hi team, for EGQIIQRSNISTAIKSL [CDC53] , is the recorded protein stability index at or above 2?
Reply: Yes

Ask: Hi team, for YHLTKAVKLGDLKKFTS [RPN3] , is the recorded protein stability index at or above 2?
Reply: No

Ask: Hi team, for MVNTQQPIVTGTSVISM [PRE4] , is the recorded protein stability index at or above 2?
Reply: Yes

Ask: Hi team, for RGFGKINKQRVPLSDNA [RPL7A] , is the recorded protein stability index at or above 2?
Reply: Yes

Ask: Hi team, for EKVNNNATLTPNDSNDE [SWI1] , is the recorded protein stability index at or above 2?
Reply: Yes

Ask: Hi team, for MTTFYKCVNCGHRWKEN [RPC11] , is the recorded protein stability index at or above 2?
Reply: Yes

Ask: Hi team, for DADEKSSNLYETIIEAD [YJR042W/NUP85] , is the recorded protein stability index at or above 2?
Reply: Yes

Ask: Hi team, for YVLSTAVEFESVPLRKG [BRR2] , is the recorded protein stability index at or above 2?
Reply: No

Ask: Hi team, for QLWLNSSGDFDDNNNNN [GRR1] , is the recorded protein stability index at or above 2?
Reply: Yes

====

Experiment: protein stability index of a GFP-peptide fusion (yeast GPS) (PSI 1-4); higher = more stable; sorted into four equal gates, so the index is relative within each strain
Settings: pdr5∆
Hi there, I'd appreciate the recorded protein stability index for every entry that follows.

Ask: Input KENGQLIGAATKFKGGK [SEC65] , output reported protein stability index.
Reply: 1.65

Ask: Input VAGAIRAGIIIAKLSVI [RPS2] , output reported protein stability index.
Reply: 2.35

Ask: Input QMAVHIATDGGRICRPL [RET1] , output reported protein stability index.
Reply: 3.04

Ask: Input GISVPFHSTYLMNGVKP [FAS1] , output reported protein stability index.
Reply: 1.51

Ask: Input SIVEECDARFDEKTIEE [RPC17] , output reported protein stability index.
Reply: 3.05

Ask: Input LLERYIGNLITRQFEGR [PRP8] , output reported protein stability index.
Reply: 2.63

Ask: Input SDSNANAAVAGVANTDT [SWI3] , output reported protein stability index.
Reply: 3.33

Ask: Input FGFSSSGTAATGAASNQ [YOR098C/NUP1] , output reported protein stability index.
Reply: 3.41

Ask: Input LTVFYAIKKFKTEKDGV [SSN3] , output reported protein stability index.
Reply: 1.74

Ask: Input FKSLIDEDLLDTQTFSV [YGL172W/NUP49] , output reported protein stability index.
Reply: 3.05

Ask: Input DWEKYKAPLEDDDKKPD [RPT1] , output reported protein stability index.
Reply: 3.56

Ask: Input SKASMQKEQNVNNRDSE [YCS4] , output reported protein stability index.
Reply: 2.98

Ask: Input MEERDGAKFENIVHNFK [AAR2] , output reported protein stability index.
Reply: 2.51

Ask: Input QACGLVKNLSLMSCISV [RPB2] , output reported protein stability index.
Reply: 1.75

====

Assay: protein stability index of a GFP-peptide fusion (yeast GPS) (PSI 1-4); higher = more stable; sorted into four equal gates, so the index is relative within each strain
Settings: san1∆
# label = Yes if protein stability index >= 3 else No

Ask: Hi team, for NTHNKSTKRVTKHPSLK [POP7] , is the recorded protein stability index at or above 3?
Reply: No

Ask: Hi team, for KLLQLAGVEDVYTQSNG [RPS2] , is the recorded protein stability index at or above 3?
Reply: Yes

Ask: Hi team, for SFTYELKQHNQNNLPPN [BRR2] , is the recorded protein stability index at or above 3?
Reply: No

Ask: Hi team, for YNIELPLPPRIDPSVTM [RPT1] , is the recorded protein stability index at or above 3?
Reply: No

Ask: Hi team, for SYLSETLISRISSLFTI [YML103C/NUP188] , is the recorded protein stability index at or above 3?
Reply: No

Ask: Hi team, for PSVNDFVIGVIIGTFSD [RRP40] , is the recorded protein stability index at or above 3?
Reply: No

Ask: Hi team, for TASDQLFGMCESLYEPN [PUP3] , is the recorded protein stability index at or above 3?
Reply: No

Ask: Hi team, for DDFDMLFGENDTSTQAY [NUT1] , is the recorded protein stability index at or above 3?
Reply: Yes

Ask: Hi team, for NISTNTNIHEPQYINYS [SSN2] , is the recorded protein stability index at or above 3?
Reply: No

Ask: Hi team, for SNDNLDLISEILKWVQW [MED1] , is the recorded protein stability index at or above 3?
Reply: No

Ask: Hi team, for LPSSNGSSRIIASDGSE [RRP42] , is the recorded protein stability index at or above 3?
Reply: Yes

Ask: Hi team, for QRDRHTLAYDRGHRIRR [PRP8] , is the recorded protein stability index at or above 3?
Reply: No
